test: folding enthalpy; higher = less favourable; fluorescence melt of hairpins on a sequencing array, two-state fit; conditions: sodium 0.088 M
Assign TRUE whenever folding enthalpy does not fall below -20 kcal/mol; assign FALSE whenever it does.

monomer_sequence="GATCTACGGGTAGATC ((((((....))))))" class_assignment=FALSE
monomer_sequence="GCGCTTGGAAACAGGCGC ((((.((....)).))))" class_assignment=FALSE
monomer_sequence="GAGGACGAAAGTCACTC ((((((....))).)))" class_assignment=TRUE
monomer_sequence="GATCACTTGCGTGATC ((((((....))))))" class_assignment=FALSE
monomer_sequence="GCGATCGAAAGATTTCGC ((((((....)))..)))" class_assignment=FALSE

Q. Form field: folding enthalpy at least -20 kcal/mol? Entry: CGAAGCGGAAACGCTCG (((.(((....))))))
A. FALSE

Q. Item TCAATGAAAATTGA (((((....))))) with folding enthalpy of -20 kcal/mol or above?
A. TRUE

----------
experiment: melting temperature; fluorescence melt of hairpins on a sequencing array, two-state fit, raised by 9.35 °C to match UV melts; details: sodium 0.088 M
measured metric: Tm
Your reply should be a number followed by the unit it is expressed in.

These recorded examples may help you get a feel for the data.
monomer_sequence="GATCGCTACGGCGATC ((((((....))))))" reported="67.8 °C"
monomer_sequence="GGGAGCTCGAAAGAGCCC (((..(((....))))))" reported="57.2 °C"
monomer_sequence="GGGGTGGGAAACCATCCC (((.(((....))).)))" reported="56.6 °C"
monomer_sequence="GACCAACGAAAGTTGTC (((.(((....))))))" reported="40.8 °C"
monomer_sequence="GCTGGCACGAAAGTGAGC (((..(((....))))))" reported="36.9 °C"

// sample GTGATGGGAAACCATTAC ((.((((....)))).)) , its Tm was 43.5 °C

The measured Tm associated with GCCCGTGGAAACACGAGC ((.((((....)))).)) reads 50.8 °C

Just so you know, measured Tm for GATGTACCGAAAGGTATC (((..(((....)))))) came out at 32.2 °C

Summary for this sequence, GATCCATCTGTGGATC ((((((....)))))) : Tm is 54.3 °C

Measured Tm of GATCCAAGAATGGATC ((((((....)))))) : 46.7 °C

The reported Tm of the sequence GGTCCAGGAAACTAGACC ((((.((....)).)))) was 35.7 °C

Documented Tm of GTACCGTCGAAAGACTAC (((..(((....)))))) : 25.7 °C

----------
assay: melting temperature; fluorescence melt of hairpins on a sequencing array, two-state fit, raised by 9.35 °C to match UV melts; conditions: sodium 0.088 M
Decision: Tm >= 50 °C yields Satisfied, all other cases yield Not satisfied.

// below: answered sequences
monomer_sequence="GATCTCGTACGAGATC ((((((....))))))" class_assignment=Satisfied
monomer_sequence="GATGTAGGAAACTGCATC ((((.((....)).))))" class_assignment="Not satisfied"
monomer_sequence="GAATCCCGAAAGGGCTTC (((.(((....))).)))" class_assignment="Not satisfied"
monomer_sequence="GCCAGCGAAAGCTCCGGC ((((((....)))..)))" class_assignment="Not satisfied"
monomer_sequence="GTACTAGCGAAAGCTTAC (((..(((....))))))" class_assignment="Not satisfied"
monomer_sequence="GCGTCGGGAAACCGATGC ((.((((....)))).))" class_assignment=Satisfied
monomer_sequence="GGTCCCGAAAGGGGTACC ((((((....)))..)))" class_assignment="Not satisfied"
monomer_sequence="GCATCGAAAGATGC (((((....)))))" class_assignment=Satisfied
monomer_sequence="GGTATCGAAAGATATACC ((((((....)))..)))" class_assignment="Not satisfied"
monomer_sequence="GATCGGTGCTCCGATC ((((((....))))))" class_assignment=Satisfied

Q. State whether the measured Tm reaches 50 °C, counting equality as reaching it, for GCGACTGGAAACAGCCGC (((.(((....))).)))
A. Satisfied

Q. Does the reported Tm for GATCCGCGCACGGATC ((((((....)))))) fall at or above the 50 °C mark?
A. Satisfied

Q. Dear colleague, could you confirm whether GATCAGACGTCTGATC ((((((....)))))) has Tm at or above 50 °C?
A. Satisfied

Q. Textbook exercise: given the entry GACATGGGAAACCATGTC (((((((....))))))) , state whether its Tm is greater than or equal to 50 °C.
A. Satisfied

Q. Is reported Tm greater than or equal to 50 °C here: GGGCGCGAAAGCGCACCC ((((((....)))..)))
A. Satisfied

Q. Identify whether the reported Tm of the following sequence is 50 °C or greater: GGTAATGCGAAAGCAACC (((..(((....))))))
A. Not satisfied

----------
assay: folding enthalpy; higher = less favourable; fluorescence melt of hairpins on a sequencing array, two-state fit; settings: sodium 0.088 M
Entries and their folding enthalpy
# number only, unit kcal/mol dropped from output

# example entries with known answers
monomer_sequence="GATCGTTTGTACGATC ((((((....))))))" measured_metric="folding enthalpy" reported=-37.3
monomer_sequence="GCGATGCGAAAGCTCCGC (((..((....))..)))" measured_metric="folding enthalpy" reported=-19.9

Entry GTTGGACGAAAGTCAAC (((.(((....)))))) , folding enthalpy reported as -17.5

Field folding enthalpy (entry GCCGTGCGAAAGCAATGC ((..(((....)))..)) ) reads -11.2

Kindly note the recorded folding enthalpy for GCGTGGCGAAAGCCTAGC ((..(((....)))..)) , which is -20.2

Recorded folding enthalpy (sequence GCCCATGGAAACATGGAC (.(((((....))))).) ): -15.1

Summary for this sequence, GATTCCGGAAACGAAATC ((((.((....)).)))) : folding enthalpy is -31.6

----------
assay: melting temperature; fluorescence melt of hairpins on a sequencing array, two-state fit, raised by 9.35 °C to match UV melts; conditions: sodium 0.088 M
measured metric: Tm (°C)
Please respond with the number in °C and leave the unit unwritten.

Sample answers from the record:
monomer_sequence="GCACGGCGAAAGCGGGGC ((.(.((....)).).))" reported=64.9
monomer_sequence="AGTAGCTGAAAAGTTACT ((((.((....)).))))" reported=36
monomer_sequence="GATCATCACCATGATC ((((((....))))))" reported=46.8
monomer_sequence="GCGACGCGAAAGCATGGC ((.(.((....)).).))" reported=40.4
monomer_sequence="GATCGATGATTCGATC ((((((....))))))" reported=53.2
monomer_sequence="GTGGAGCGAAAGCTGCAC (((.(((....))).)))" reported=62.4
monomer_sequence="GTCGCAGGAAACTGTGAC (((.(((....))).)))" reported=53.9
monomer_sequence="GCGGTGGGAAACCATCGC (((.(((....))).)))" reported=61.8

The value of Tm measured for the sequence GTTGACGAAAGTCTAAAC ((((((....)))..))) turned out to be 30.4

Tm recorded for this sequence, GAATGCGAAAGCAGATTC ((((((....)))..))) , is 43.2

----------
assay: melting temperature; fluorescence melt of hairpins on a sequencing array, two-state fit, raised by 9.35 °C to match UV melts; settings: sodium 0.088 M
# Tm per record follows
Please state the figure in °C; there is no need to write the unit.

monomer_sequence="GCTGTGCGAAAGCGAAGC (((..((....))..)))" measured_metric=Tm reported=52.6

Short answer for GCATGGCGAAAGCCGCGC ((..(((....)))..)) : Tm was 61.1

----------
test: folding enthalpy; higher = less favourable; fluorescence melt of hairpins on a sequencing array, two-state fit; conditions: sodium 0.088 M
measured metric: folding enthalpy (kcal/mol)
Lab book: enter the figure in kcal/mol, no units written.

# annotated cases, reported folding enthalpy shown
monomer_sequence="GGTCAAACGAAAGTTACC (((..(((....))))))" measured_metric="folding enthalpy" reported=-15.1
monomer_sequence="GTCCACCGAAAGGTGAC (((.(((....))))))" measured_metric="folding enthalpy" reported=-12.5

So for GGAGTCGGAAACGGCTCC ((((.((....)).)))) , the logged folding enthalpy turned out to be -45.8

// sample GATATGGAAACATATC ((((((....)))))) , its folding enthalpy was -29.7

Please fill in: folding enthalpy reported for GAAACACGAAAGTGTTC (((.(((....)))))) = -12.7

Reported folding enthalpy of GATCTCGTCAGAGATC ((((((....)))))) : -37.5
